MEASURED_TARGET: T1, mouse GLP-1 receptor (mouse, UniProt O35659 22-463)
T1 sequence (looked up): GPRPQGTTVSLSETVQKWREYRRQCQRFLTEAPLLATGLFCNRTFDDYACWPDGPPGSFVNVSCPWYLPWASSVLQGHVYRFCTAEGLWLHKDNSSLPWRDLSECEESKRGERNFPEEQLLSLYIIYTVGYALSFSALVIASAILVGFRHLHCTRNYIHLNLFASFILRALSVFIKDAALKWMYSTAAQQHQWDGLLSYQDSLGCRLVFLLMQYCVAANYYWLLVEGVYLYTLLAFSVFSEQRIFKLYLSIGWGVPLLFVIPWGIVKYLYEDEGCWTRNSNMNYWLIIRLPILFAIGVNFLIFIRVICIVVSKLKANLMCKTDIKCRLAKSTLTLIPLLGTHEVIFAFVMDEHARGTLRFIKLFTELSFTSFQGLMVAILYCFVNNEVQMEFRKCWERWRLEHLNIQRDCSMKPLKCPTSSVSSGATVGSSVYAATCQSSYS
ASSAY_DETAILS: cell-based or functional assay
ATTRIBUTE_MEASURED: cAMP EC50 (assay 2, 3.2% mouse serum albumin) (nM)
Write down the numeric answer in nM and omit the unit.

Answered cases to consult:
[
  {
    "BINDER": "HSQGTFTSDKSKYLEGQAAKEFIAWLEKGR (X10 = K(gE-palm); C-terminal amide) [G812]",
    "VALUE_MEASURED": 0.13
  },
  {
    "BINDER": "HSQGTFTSDKSSYLDSRRARDFVAWLEAGG (X10 = K(gE-palm); C-terminal amide) [G796]",
    "VALUE_MEASURED": 0.13
  },
  {
    "BINDER": "HSQGTFTSDYSKKLDSERARDFVAWLVAGG (X13 = K(gE-palm) (Lys with palmitoyl on the epsilon nitrogen through a gamma glutamic acid linker); C-terminal amide) [G730]",
    "VALUE_MEASURED": 1.1
  }
]

Here is the next item to consider.
[in] Answer with the recorded cAMP EC50 (assay 2, 3.2% mouse serum albumin) for the binder listed here: HGQGTFTSDYSKYLDSKRAQDFVQWLVAGG (X17 = K(gE-palm); C-terminal amide) [G380]
[out] 15
